Source listed as PubChem BioAssay (NCI).

System: EKVX NSCLC
Test: NCI tumour cell line growth inhibition, 48 h
Where a SMILES comes first, the peptide text is derived from it. [ ]: non-standard residue; d: D form. The star is where a group is joined. ξ: configuration not given here. X3 = COc1ccc(C(N*)c2ccc(OC)cc2)cc1; NMeF = CN[C@@H](Cc1ccccc1)C(=O)O; NMeD = CN[C@@H](CC(=O)O)C(=O)O; NMeV = CN[C@H](C(=O)O)C(C)C; ξNMeV = CNC(C(=O)O)C(C)C; Boc = CC(C)(C)OC(=O)*; ξNMeA = CNC(C)C(=O)O; ξV = CC(C)C(N)C(=O)O
QUANTITY: GI50

Simply: `CCOC(=O)C1=C(C)N(c2ccc(F)cc2F)[C@]2(C#N)C(O)=C(Cl)C(Cl)=C(O)[C@]12C#N` , EKVX NSCLC, GI50 = > 100 µM

Simply: COc1ccc(C(NC(=O)C[C@@H](C(=O)N(C)C(C)C(=O)O)N(C)C(=O)[C@@H]2CCCN2C(=O)[C@H](C(C)C)N(C)C(=O)C(C(C)C)N(C)C(=O)[C@H](Cc2ccccc2)N(C)C(=O)C(NC(=O)OC(C)(C)C)C(C)C)c2ccc(OC)cc2)cc1 (some centres not stated) (Boc-[ξV][NMeF][ξNMeV][NMeV]P[NMeD](X3)[ξNMeA]-OH) , EKVX NSCLC, GI50 = 21.6 µM

Simply: `Cc1ccc(-n2c3nc(=O)[nH]c(=O)c-3cc3cc([N+](=O)[O-])ccc32)cc1` , EKVX NSCLC, GI50 = 33.1 µM

Simply: `Cc1csc(-c2nnc(Nc3ccc(Oc4ncccc4-c4ccnc(N)n4)cc3)c3ccccc23)c1` , EKVX NSCLC, GI50 = > 100 µM

Simply: `CN(C)c1cc(NN=C(c2ccc(O)cc2)c2ccc(O)cc2)c([N+](=O)[O-])cc1[N+](=O)[O-]` , EKVX NSCLC, GI50 = 5.49 µM

Simply: `COc1ccc2nc(NC(=O)CSc3nnc4n3S(=O)(=O)c3ccccc3N4c3ccccc3)sc2c1` , EKVX NSCLC, GI50 = > 100 µM

Simply: `O=C(CCCSc1nc(-c2ccccc2)cc(-c2ccccc2)n1)NO` , EKVX NSCLC, GI50 = 2.93 µM

###

Test system: MDA-MB-231 breast
Assay: NCI tumour cell line growth inhibition, 48 h; in the data active = GI50 below about 0.43 µM; inactive = the rest
Tick one outcome: active, inactive

Record request — test call for `COc1ccc(CCN=C2NC(=O)/C(=C/c3ccc4ncccc4c3)S2)cc1` inactive

Record request — test call for COc1ccc(C2[C@@H](c3ccccc3)C(=O)N2c2cc(OC)c(OC)c(OC)c2)cc1F (stereo not given in full) active

Record request — test call for `COc1ccc(-c2cn[nH]c2-c2cc(OC)c(OC)c(OC)c2)cc1` active

Record request — test call for COc1cccc(C(=O)NC(c2ccc(C)cc2)c2cc(Cl)c3cccnc3c2O)c1 (stereo not given) inactive

Record request — test call for `Cn1ccc2c3c(Oc4ccc(NC(N)=O)cc4)ccnc3ccc21` inactive

Record request — test call for `O=C(CCCSc1nc(-c2ccccc2)cc(-c2ccccc2)n1)NO` inactive

Record request — test call for `c1ccc(Sc2ncnc3ccccc23)cc1` inactive

Record request — test call for `Cc1csc(-c2nnc(Nc3ccc(Oc4ncccc4-c4ccnc(N)n4)cc3)c3ccccc23)c1` inactive

Record request — test call for `CCOC(=O)C1=C(C)N(c2ccc(F)cc2F)[C@]2(C#N)C(O)=C(Cl)C(Cl)=C(O)[C@]12C#N` inactive

Record request — test call for `CCCOc1cc2ccccc2cc1C(=O)Nc1nc(N)c2c(ccc3nccc32)[nH]1` inactive
